Molecular target: PDZRN4_1, Q6ZMN7
Sequence (Q6ZMN7 213-318): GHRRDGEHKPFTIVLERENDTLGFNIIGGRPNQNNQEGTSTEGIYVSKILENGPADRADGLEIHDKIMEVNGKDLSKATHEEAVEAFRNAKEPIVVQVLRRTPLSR
Test: holdup assay
Set-up: key: below the threshold = too weak to quantify, mostly under pKd 3.1 to 4
Details: plain residues with an end cap or a label only (N-terminal biotin on a linker: ado-ado)
observable: pKd

binder="PLPPEEESWV [GAS2L2, Q8NHY3]" observable=pKd result_value=4.13
binder="VISSDDLTEL [CAPN6, Q9Y6Q1]" observable=pKd result_value="below the threshold"
binder="VCMGDHWFDV [PRKN, O60260]" observable=pKd result_value="below the threshold"
binder="PLATCDETSI [SEMA4F, O95754]" observable=pKd result_value=4.33
binder="QKASRNESTF [POLR1D, P0DPB6]" observable=pKd result_value="below the threshold"
binder="PSVYSRSQYV [CLDN8, P56748]" observable=pKd result_value="below the threshold"
